# Test system: NCI-H322M lung
# procedure-text: NCI-60 one-dose screen, 48 h (100 = growth as untreated, 0 = no growth, -100 = all killed)
# condition-context: 10 µM unless noted
The panel holds about 83,000 compounds, 20% with a hit somewhere; the sample as a whole holds those more often.
assay-readout: growth (%)
Enter your answer as a number in %; do not include the unit.

These recorded examples may help you get a feel for the data.
INSERT INTO measurements (compound, target_under_test, test_value) VALUES
  ('O=C(N=Nc1c(O)[nH]c2ccc([N+](=O)[O-])cc12)c1ccc2nc(-c3ccccc3)[nH]c2c1', 'NCI-H322M lung', 104),
  ('COc1ccc(NC(=O)Cn2c(O)c(N=Nc3ccc(S(N)(=O)=O)cc3)c3ccccc32)cc1', 'NCI-H322M lung', 34.4),
  ('Cc1cc2c(cc1Cl)C(=O)/C(=C/c1ccccc1)O2', 'NCI-H322M lung', 73.5),
  ('Cn1cc(-c2cc3nc(-c4cn(C)c5ncccc45)cc(N)n3n2)c2ccccc21', 'NCI-H322M lung', 37),
  ('O=C(Cn1nc(-c2ccccc2)ccc1=O)N/N=C/c1ccc(N2CCOCC2)cc1', 'NCI-H322M lung', 106),
  ('Clc1ccc(-c2ccc(OCCCN3CCN(c4ccncc4)CC3)cc2)cc1', 'NCI-H322M lung', 91),
  ('COc1c(F)ccc(C(=O)Nc2ccc3nc(NC(=O)C4CCCN(S(=O)(=O)c5ccc(C#N)cc5)C4)sc3c2)c1F (centres undefined)', 'NCI-H322M lung', 101),
  ('COc1cc(-c2ccc(/C=N/NC(=O)c3[nH]c4ccc(Br)cc4c3-c3ccccc3)o2)cc(OC)c1OC', 'NCI-H322M lung', 81.2);

Field: next compound
Hey, NCI-H322M lung data for CCCSc1nc(NCCc2c[nH]c3ccccc23)c(C#N)c(-c2ccc(OC)cc2)n1 : growth came out at 89

====

# growth values compiled below
# Tested on: MDA-MB-468 breast
# procedure-text: NCI-60 one-dose screen, 48 h (100 = growth as untreated, 0 = no growth, -100 = all killed)
# condition-context: 10 µM unless noted
About 83,000 compounds went through this panel and 20% of them were active in at least one assay; those are over-represented in the sample as a whole. Active and inactive are the calls of the source. The calls were made as follows: active = growth percent below 10; inactive = the rest.

// worked examples, growth included
INSERT INTO assay_data (compound, test_value) VALUES
  ('Cc1cccc(-c2nc(Nc3cccc(S(N)(=O)=O)c3)c3ccccc3n2)c1', '38.6% (inactive)'),
  ('CC1(C)CC[C@]2(C(=O)O)CC[C@]3(C)C(=CCC4[C@@]5(C)C[C@@H](O)[C@@H]6OC(c7cccc(Br)c7)OC[C@@]6(C)C5CC[C@]43C)C2C1 (stereo partly drawn)', '23.6% (inactive)'),
  ('COc1cc2oc(-c3cccc(C(=O)Nc4ccc(Cl)cc4)c3)cc(=O)c2c(OCC(=O)N[C@@H](Cc2ccccc2)C(=O)O)c1OC', '112% (inactive)');

Next item in the queue.
MDA-MB-468 breast growth of CN(C)CCn1c2ccccc2c2nc3cc(C(F)(F)F)ccc3nc21 is 35.3% (inactive)

====

# Tested on: COLO 205 colon
# procedure-text: NCI-60 one-dose screen, 48 h
# condition-context: 10 µM unless noted
This is part of a sample that, as a whole, favours compounds with a hit. Of some 83,000 tested, about 20% had one in any assay. Activity calls are given as the source filed them. Rule for the calls: active = growth percent below 10; inactive = the rest.
Parameter call: string, one of label 1 = active, label 0 = inactive

Worked examples, 5 molecules total:
INSERT INTO measurements (molecule, target_under_test, category_label) VALUES
  ('C=C1CCC2C3(C)COC(c4ccco4)OC3CCC2(C)C1CC(Sc1ccccc1)C1=CCOC1=O (centres undefined)', 'COLO 205 colon', 'label 0'),
  ('Cc1ccc([C@H]2C(C(=O)c3ccc(Cl)cc3)C3(N[C@@H]2c2ccccc2)C(=O)Nc2ccccc23)cc1 (some centres undefined)', 'COLO 205 colon', 'label 0'),
  ('COc1ccccc1/C=C/C(=O)c1ccc(OC)c(S(N)(=O)=O)c1', 'COLO 205 colon', 'label 1'),
  ('CCCSc1nc(NCCc2c[nH]c3ccccc23)c(C#N)c(-c2ccc(F)cc2)n1', 'COLO 205 colon', 'label 0'),
  ('Cc1ccc2c(c1)nc(-c1ccccc1)n2CC(=O)N=Nc1c(O)[nH]c2ccc(Br)cc12', 'COLO 205 colon', 'label 1');

**Query** Test call for this molecule, please: CN1CCN(c2ccc(C(=O)/C=C/c3ccc(Br)cc3)cc2)CC1
**Result** label 1

**Query** Assay result, entry CC(=O)Oc1ccc(/C=C/C(=O)N[C@@H](Cc2ccccc2)C(O)C(=O)NCc2ccccc2)cc1OC(C)=O (some centres undefined) — outcome?
**Result** label 0

**Query** Which result was noted for this molecule in the test: O=C1CC(Sc2n[nH]c(-c3ccncc3)n2)C(=O)N1c1ccc(Br)cc1 (centres undefined)
**Result** label 0

**Query** For this molecule, state the assay outcome: COc1ccc(C(=O)/C=C/c2c(F)cccc2Cl)cc1S(N)(=O)=O
**Result** label 1

====

Listed next: entries and their corresponding growth.
# System: SK-OV-3 ovarian
# procedure-text: NCI-60 one-dose screen, 48 h (100 = growth as untreated, 0 = no growth, -100 = all killed)
# condition-context: 10 µM unless noted
Compounds without any hit were thinned out: in the full panel of roughly 83,000, 20% have a hit.
Give a bare numeral; the unit % is implied.

Example cases with answers are listed next.
INSERT INTO assay_data (compound, assay_readout, test_value) VALUES
  ('CC1(C)CC[C@]2(C(=O)O)CC[C@]3(C)C(=CCC4[C@@]5(C)C[C@@H](O)[C@@H]6OC(c7ccc(F)cc7)OC[C@@]6(C)C5CC[C@]43C)C2C1 (stereo partly drawn)', 'growth', 85.7),
  ('Cc1cc(C)cc(C(=O)Nc2cccc(-c3cn(-c4ccc(S(N)(=O)=O)cc4)nn3)c2)c1', 'growth', 9.56),
  ('CC(=O)Nc1ccc(-c2cn(-c3cccc(C(=O)Nc4ccc(N5CCN(C)CC5)cc4)c3)nn2)cn1', 'growth', 93.8),
  ('CCOC(=O)C1=C(N)N(c2ccccc2)C2=C(C(=O)CC(C)(C)C2)C1c1ccc(Cl)cc1Cl (stereo not drawn)', 'growth', 34.5),
  ('Nc1nnc(-c2c[nH]c3ncc(Br)cc23)c(-c2c[nH]c3ccc(F)cc23)n1', 'growth', 80.5),
  ('Clc1cccc(-c2ccc(OCCCN3CCN(c4ccncc4)CC3)cc2)c1', 'growth', 30.1),
  ('CC(C)(C)OC(=O)/C=C/c1cccc2c1C(=O)NC(C)(c1cc3cc(Cl)ccc3oc1=O)N2 (stereo not drawn)', 'growth', 47.6);

Next:
// assay SK-OV-3 ovarian, entry C=C1CC[C@@H]2[C@]3(C)COC(c4cn[nH]c4-c4ccc(F)cc4)O[C@@H]3CC[C@@]2(C)[C@@H]1C/C=C1/C(=O)OCC1O (stereo partly drawn) , growth value = 46.6

====

# Test system: UACC-62 melanoma
# procedure-text: NCI-60 one-dose screen, 48 h (100 = growth as untreated, 0 = no growth, -100 = all killed)
# condition-context: 10 µM unless noted
Compounds without any hit were thinned out: in the full panel of roughly 83,000, 20% have a hit.
assay-readout: growth (%)
Form entry: value (%) — number only.

Reference set (4 entries):
INSERT INTO assay_data (smiles_repr, test_value) VALUES
  ('O=C1NC(=O)c2c1c1c3cc(Br)ccc3[nH]c1c1oc3ccc(F)cc3c21', 0.264),
  ('CSc1ccc(C(=O)Nc2ccc3nn(/C(C#N)=C/c4ccccn4)nc3c2)cc1', -91.2),
  ('COc1ccc(-c2nc(SC(C)C)nc(NCCc3c[nH]c4ccccc34)c2C#N)cc1', 73.6),
  ('Cc1cnc(C(=O)NNc2nc3cc(F)ccc3n3c(C(=O)N4CC5CC(C4)N5)ccc23)cn1', 2.81);

Okay, now this molecule:
Nc1cc2ccccc2c(=O)n1NC(=O)c1ccc(I)cc1 yielded growth of 93.2

====

# System: MDA-MB-231 breast
# procedure-text: NCI-60 one-dose screen, 48 h
# condition-context: 10 µM unless noted
Compounds without any hit were thinned out: in the full panel of roughly 83,000, 20% have a hit. Active and inactive are the calls of the source. How the source made its calls: active means growth percent below 10; inactive means the rest.
Give your call using only these classes: active, inactive

Please review the entries below; each comes with its answer.
INSERT INTO results (molecule, category_label) VALUES
  ('CCOC(=O)C1=C(N)N(c2ccccc2)C2=C(C(=O)CC(C)(C)C2)C1c1ccc([N+](=O)[O-])cc1 (stereo not drawn)', 'inactive'),
  ('COc1cc2c3c(n(CCCN4CCC[C@@H]4CO)c(=O)c2cc1OC)-c1cc2c(cc1C3=O)OCO2', 'active'),
  ('COc1ccc(NC(=O)[C@H](CO)NC(=O)OC(C)(C)C)cc1C(=O)Nc1cccc(C2CC(=O)c3c(cc(OC)c(OC)c3OC)O2)c1 (stereo partly drawn)', 'inactive'),
  ('CCCCSc1nc(Nc2ccc(S(N)(=O)=O)cc2)c(C#N)c(-c2ccc(Cl)cc2)n1', 'active'),
  ('O=c1cc(-c2ccccc2)oc2cc(OCCCC[P+](c3ccccc3)(c3ccccc3)c3ccccc3)cc(O)c12', 'active');

**Query** Test call, this molecule: COc1ccc(C(=O)/C=C/c2ccc(OCc3ccc(F)cc3)c(OC)c2)cc1OC
**Result** inactive

**Query** What was the test verdict on O=C(NN1C(=O)/C(=C/C=C/c2ccc([N+](=O)[O-])o2)SC1=S)c1ccc(Cl)cc1 ?
**Result** active

**Query** Returns: the outcome recorded for COc1cccc(COc2ccc(NC(=O)Nc3ccc(Cl)c(C(F)(F)F)c3)cc2)c1 in this assay.
**Result** inactive
